# SYSTEM_NAME: C-X-C chemokine receptor type 4 (Homo sapiens)
# Sequence (P61073 whole entry): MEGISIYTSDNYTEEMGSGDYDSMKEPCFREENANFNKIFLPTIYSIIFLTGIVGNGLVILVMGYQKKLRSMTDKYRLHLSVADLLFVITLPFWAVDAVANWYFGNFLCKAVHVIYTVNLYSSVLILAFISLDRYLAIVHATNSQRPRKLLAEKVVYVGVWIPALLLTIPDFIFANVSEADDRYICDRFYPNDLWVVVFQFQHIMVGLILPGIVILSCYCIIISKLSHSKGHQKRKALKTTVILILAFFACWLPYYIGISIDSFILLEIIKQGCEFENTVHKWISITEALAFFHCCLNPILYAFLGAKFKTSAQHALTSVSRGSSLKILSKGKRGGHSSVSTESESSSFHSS
# TEST_NAME: Binding affinity to CXCR4 (unknown origin) expressed in CHO cells incubated for 40 mins by competitive binding assay method
# Type: cell-based
ASSAY_READOUT: IC50 (nM)

Study these solved cases before continuing.
[[record]]
smiles_representation = "c1cc(CNCCCNC2CCCCC2)cc(CNCCCNC2CCCCC2)c1"
unit_abbrev = "nM"
value_reported = 155

[[record]]
smiles_representation = "CNc1cc(CNCCCNC2CCCCC2)cc(CNCCCNC2CCCCC2)c1"
unit_abbrev = "nM"
value_reported = 67.6

[[record]]
smiles_representation = "c1cc(-c2ccc(CNCCCNC3CCCCC3)cc2)ccc1CNCCCNC1CCCCC1"
unit_abbrev = "nM"
value_reported = 67.5

[[record]]
smiles_representation = "c1cc(CNCCCNC2CCCCC2)ccc1CNCCCNC1CCCCC1"
unit_abbrev = "nM"
value_reported = 19.8


(I) CN(C)c1cc(CNCCCNC2CCCCC2)cc(CNCCCNC2CCCCC2)c1
(II) CN(C)c1cc(CNCCCNC2CCCCC2)ccc1CNCCCNC1CCCCC1
(III) c1cc(CNCCCNC2CCCCC2)ncc1CNCCCNC1CCCCC1
Falling order of IC50, please. Present the labels in the sequence the task asks for.
III, I, II
